Protocol Details: inhibitors of Chlamydomonas gravitaxis, primary screen, whole organism, Chlamydomonas reinhardtii, WT vs cilia-less mutant, absorbance, 96-well (AID 463189);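 also: 0% = wild type cc124 cells in DMSO and 100% = ciliumless bld1 mutant cells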
Measurement Context: OD600 absorbance, 2 days, at 10 µM, stronger effect = higher value
Overview of recorded inhibition for various molecules
Quantity Measured: inhibition (%)

1. COc1cc(/C=N/n2c(C)nnc2C)cc(OC)c1OC	23.6
2. Cn1ccnc1SCCC#N	3.16
3. Cc1c(C=NCCOCc2ccccc2)cnn1C	-6.27
4. Oc1ccccc1CNn1cnnc1	18.3
5. CCCC(=O)Nn1cnc2c(c1=O)C1(CCCC1)Cc1ccccc1-2	-19.9
6. CCCN(CCC)S(=O)(=O)c1ccc(C(=O)O)cc1	-3.99
7. CC[N+](C)(CC)CCOC(=O)C(O)(c1ccccc1)C1CCCCC1 (configuration not stated)	-14

* * *

Protocol Details: DUSP6 inhibitors restoring Erk phosphorylation by chemical complementation, primary imaging in DUSP6-transfected HeLa (AID 609)
Measurement Context: HeLa MKP-3 transfected, phospho-Erk imaging KS statistic; measured here: cell density z-score; at 10 µM; cells stimulated with TPA for 15 min
Measured z-score values are reported for all entries that follow.
Quantity Measured: z-score

1. CC(=O)OC12CC3CC(C1)C(=NO)C(C3)C2	1.34
2. C/C(=C\C(=O)O)CC(=O)O	0.304
3. CC(C(=O)N1CCOCC1)N1C(=O)c2ccccc2C1=O (stereo unspecified)	1.24
4. Cc1cc(C)cc(CC2CC(=O)N(c3cc(C)on3)C2=O)c1 (stereo unspecified)	-0.204
5. COCCCN1C(=O)C(O)=C(C(=O)c2ccco2)C1c1ccc(Br)cc1 (stereo unspecified)	-1.16
6. COc1ccc(-n2c(=O)c3c4c(sc3n3c(C)nnc23)CC(C)CC4)cc1 (stereo unspecified)	-1.05
7. CC[C@H]1OC(=O)C[C@@H](O)[C@H](C)[C@@H](O[C@@H]2O[C@H](C)C[C@H](N(C)C)[C@H]2O)[C@@H](CC=O)C[C@@H](C)C(=O)C=C[C@]2(C)O[C@H]2[C@@H]1C	0.794
8. COc1cccc(OC)c1OCC(C)CNCC1CCCO1 (stereo unspecified)	-1
9. Cc1cccc2c1NC(C)CC2C (stereo unspecified)	1.31
10. Cc1cc(C)c(NC(=O)OCCN2CCOCC2)c(C)c1	-0.0769
11. COc1ccc(-c2nc3n(c2Br)CCC3)cc1	1.1

* * *

Protocol Details: DUSP6 inhibitors restoring Erk phosphorylation by chemical complementation, primary imaging in DUSP6-transfected HeLa (AID 609)
Measurement Context: HeLa MKP-3 transfected, phospho-Erk imaging KS statistic; measured here: cell density z-score; at 10 µM; cells stimulated with TPA for 15 min
If the reported z-score equals or exceeds 1, assign true (1). If not, assign false (0).

1) CC(=O)c1cc(CN2CCCCC2)cc(OC(C)C)c1	false (0)
2) CCOC(=O)c1[nH]c2ccc(Br)cc2c1NC(=O)CCN1CCN(C(=O)OCC)CC1	false (0)
3) Cc1nc2ccccc2cc1O	false (0)
4) Cc1cc(C)c2c(N)c(C(=O)c3ccccc3)oc2n1	false (0)
5) COc1ccc(C2C(C#N)=C(SC)NC3=C2C(=O)CC(C)(C)C3)cc1 (stereo unspecified)	true (1)
6) COc1ccc(/C(O)=C2\C(=O)C(=O)N(CCN(C)C)C2c2cccc(OC)c2OC)cc1 (stereo unspecified)	false (0)
